Value source: patent US10611750B2

# assayed.system: BRD4 Bromodomain 1 (BRD4 BD1) (Homo sapiens)
# Construct: 44-168 and BRD4 BD2
# test.method.notes: AlphaScreen binding assay, BRD4 BD1
# conditions: His-tagged BRD4 BD1 50 nM, biotinylated H4 (1-21) K5/8/12/16 tetra-acetylated peptide 50 nM, compounds listed under IC50 range headings
pIC50: −log10 of the molar value.
Assign pIC50 to each entry below.

IN: API: value(readout= pIC50, system= BRD4 Bromodomain 1 (BRD4 BD1) (Homo sapiens), query= COC(=O)N1c2ccc(-c3cnn(C4CC4)c3)c(OCC(=O)N(C)C3CC3)c2CC[C@@H]1C )
OUT: 6.00 to 7.00

IN: API: value(readout= pIC50, system= BRD4 Bromodomain 1 (BRD4 BD1) (Homo sapiens), query= COC(=O)N1c2ccc(-c3cnn(C4CC4)c3)c(OCCN3CCCS3(=O)=O)c2CC[C@@H]1C )
OUT: 5.00 to 6.00

IN: API: value(readout= pIC50, system= BRD4 Bromodomain 1 (BRD4 BD1) (Homo sapiens), query= C[C@H]1CCc2c(ccc(-c3cnn(C4CCCS(=O)(=O)C4)c3)c2OC2CCC2)N1C(=O)C1CC1 (stereo partly shown) )
OUT: 6.00 to 7.00

IN: API: value(readout= pIC50, system= BRD4 Bromodomain 1 (BRD4 BD1) (Homo sapiens), query= CC(=O)N1c2ccc(-c3cnn(CCO)c3)c(OCCN(C)S(C)(=O)=O)c2CC[C@@H]1C )
OUT: 5.00 to 6.00
